All values here come from ChEMBL document CHEMBL1156554.

assay: AUC (0 to infinity) in rat at […], po dosed in 0.5% methylcellulose, 0.1% triacetin; format: ADME, organism-based; design: time infinity, dose 2.1 mg/kg, route oral; details: in vivo
ENDPOINT NAME: AUC(0-inf) (ng·h/mL)
Give just the number in ng·h/mL; leave the unit off.

What value of AUC(0-inf) has been recorded for this entry: FC(F)(F)c1ccc(Nc2ncnc3cc(-c4ncccc4C(F)(F)F)ccc23)cn1
982

====

experiment: Cmax in rat at 2.0 mg/kg, po dosed in 2% D-alpha-tocopheryl polyethylene glycol 1000 succinate; format: ADME, organism-based; design: dose 2 mg/kg, route oral; conditions: in vivo
ENDPOINT NAME: Cmax (ng/mL)
Kindly answer with a numeric value in ng/mL, unit omitted.

SMILES: FC(F)(F)c1ccc(Nc2ncnc3cc(-c4ncccc4C(F)(F)F)ccc23)cn1
ENDPOINT NAME: Cmax
MEAS VALUE: 211

Okay, now this molecule:
Entry under review: FC(F)(F)c1ccc(Nc2ncnc3cc(-c4ncccc4C(F)(F)F)ccc23)cc1 . Reported Cmax?
101

====

assay: AUC (0 to infinity) in rat at 2.0 mg/kg, po dosed in 2% D-alpha-tocopheryl polyethylene glycol 1000 succinate; type: ADME, organism-based; parameters: dose 2 mg/kg, route oral, time infinity; details: plasma
ENDPOINT NAME: AUC(0-inf) (ng·h/mL)
Give the value in ng·h/mL but do not write ng·h/mL after it.

MOLECULE: FC(F)(F)c1ccc(Nc2ncnc3cc(-c4ncccc4C(F)(F)F)ccc23)cc1 [NGD-8243]
AUC(0-inf) / ng·h/mL: 1430

Proceeding to the next molecule to report its AUC(0-inf).
Entry FC(F)(F)c1ccc(Nc2ncnc3cc(-c4ncccc4C(F)(F)F)ccc23)cn1 : reported AUC(0-inf) = ?
1450

====

Below is a list of entries, each paired with its recorded Cmax value.
test: Cmax in rat at 2.0 mg/kg, po dosed in 0.5% methylcellulose, 0.1% triacetin; format: ADME, organism-based; set-up: dose 2 mg/kg, route oral; settings: in vivo
The figure you give is taken to be in ng/mL; do not add the unit.

Solved entries (count: 3):
COMPOUND: COCc1nc(Nc2ccc(C(F)(F)F)cc2)c2ccc(-c3ncccc3C(F)(F)F)cc2n1
Cmax (ng/mL): 215
//
COMPOUND: C[C@@H]1CN(Cc2nc(Nc3ccc(C(F)(F)F)nc3)c3ccc(-c4ncccc4C(F)(F)F)cc3n2)C[C@H](C)O1
Cmax (ng/mL): 93
//
COMPOUND: FC(F)(F)c1ccc(Nc2ncnc3cc(-c4ncccc4C(F)(F)F)ccc23)cc1 [NGD-8243]
Cmax (ng/mL): 13

Could you share which Cmax value was measured for FC(F)(F)c1ccc(Nc2ncnc3cc(-c4ncccc4C(F)(F)F)ccc23)nc1 ?
137

====

test: Clearance in rat at 1.0 mg/kg, iv dosed in 50% PEG-400/water; format: ADME, organism-based; set-up: dose 1 mg/kg, route intravenous; conditions: in vivo
ENDPOINT NAME: clearance (mL/min/kg)
Field format: number, assumed mL/min/kg, no unit text.

What value of measured clearance is listed for COCc1nc(Nc2ccc(C(F)(F)F)cc2)c2ccc(-c3ncccc3C(F)(F)F)cc2n1 ?
5.3

====

assay: Tmax in rat at […], po dosed in 0.5% methylcellulose, 0.1% triacetin; assay type: ADME, organism-based; set-up: dose 2.1 mg/kg, route oral; conditions: in vivo
ENDPOINT NAME: Tmax
Record the result as a number with its unit.

Would you mind telling me what Tmax value was observed for FC(F)(F)c1ccc(Nc2ncnc3cc(-c4ncccc4C(F)(F)F)ccc23)cn1 ?
1.8 h
